B1: ZNF649 (parent)
chain: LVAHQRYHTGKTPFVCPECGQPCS

# Variants of: B1
# assay_remarks: protein stability index of a GFP-peptide fusion (GPS, HEK-293T) (PSI 1-6); higher = more stable;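 also: lentivirally expressed fusions sorted by FACS into six bins by GFP to DsRed ratio, PSI derived from sequencing read proportions per bin multiplied by bin number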
# condition_label: c terminus: a fixed tail appended
Reported protein stability index by item:
attribute_measured: protein stability index

INSERT INTO measurements (chain_sequence, attribute_measured, numeric_readout) VALUES
  ('LVAHQRYHTGKTPFVCPECGWPCS [Q21W]', 'protein stability index', 2.97),
  ('LVATQRYHTGKTPFVCPECGQPCS [H4T]', 'protein stability index', 3.17),
  ('LVAIQRYHTGKTPFVCPECGQPCS [H4I]', 'protein stability index', 2.26),
  ('LVAHQRYHTGKTPFVCPEAGQPCS [C19A]', 'protein stability index', 2.89),
  ('LVAHQRYHTGKTPFVCPECGQPCK [S24K]', 'protein stability index', 3.23),
  ('LVAHQRYHTGKTPFVCPECIQPCS [G20I]', 'protein stability index', 2.27),
  ('LVAHQRYHTGKTPWVCPECGQPCS [F14W]', 'protein stability index', 3.1),
  ('LVAHQRYHTGKTPFVCPEQGQPCS [C19Q]', 'protein stability index', 2.92),
  ('LVAHQRYHTGKTPFVCPYCGQPCS [E18Y]', 'protein stability index', 2.27),
  ('LVAHQRYHIGKTPFVCPECGQPCS [T9I]', 'protein stability index', 3.77),
  ('LVAHQSYHTGKTPFVCPECGQPCS [R6S]', 'protein stability index', 3.96);
